Hello, the source for this data is paper PMC8705783, in case you need it.

# System: HEK-293 and HEPG2
# EXPERIMENT: Antiproliferative activity, MTT, both tested cell lines
# Type: cell-based
# STUDY CONDITIONS: Homo sapiens; Table 5
# Procedure: The investigated compounds were screened for their in vitro antiproliferative activity towards a human embryonic kidney cell line (HEK-293) and human liver cancer cell line (HEPG2) using colorimetric MTT. The human embryonic kidney cell line (HEK-293) and human liver cancer cell line (HEPG2) were purchased from ATCC (Manassas, Virginia, USA). HEK-293 was cultured in Dulbecco’s Modified Eagle Medium (Corning, NY, USA) and HEPG2 in Minimum Essential Medium Eagle (Corning, NY, USA). […]
pIC50: −log10 of the molar value.
MEASUREMENT TYPE: pIC50

**Query** Given CCN(CC)CCNc1ccc2ncn3c4ccc(O)cc4c(=O)c1c23 [Compound C-1311] , state its recorded pIC50.
**Result** ≥ 6.00
